Ref: patent US20110143406A1

Test system: ROB ((S,S)-butanediol dehydrogenase)
Assay type: biochemical, Ochrobactrum sp. KNKc71-3
Conditions: reduction; each compound 1 mM, NADH 0.167 mM, phosphate buffer pH 5.5, 30° C., 3 minutes; activity against 2,3-butanedione taken as 100
metric-name: Relative activity (%)
Answer in %, number only, no unit symbol.

For orientation, consider the following solved cases.
Query: Fill blank: measured Relative activity (%) of the molecule COC(=O)CC(C)=O [Methyl acetoacetate] is ____.
Response: 65.1

Query: Try this molecule next: `CCCCCC(C)=O`
Response: 3.8

Further cases:
Query: Look up Relative activity (%) for this molecule: `CCC(C)=O`
Response: 0.9

Query: Query CCOC(=O)C(Cl)C(C)=O (stereo not shown) [Ethyl 2-chloroacetoacetate] next
Response: 58.5

Query: Record: O=C(CO)CCl [1-chloro-3-hydroxyacetone]
Response: 94.3

Query: Continue with COC(=O)C(C)=O [Methyl pyruvate]
Response: 136

Query: Let us now turn to `CC(=O)C(C)=O`
Response: 100

Query: Same for CC(=O)CO [Hydroxyacetone]
Response: 17.9

Query: Ok, now `CCCCCCC(C)=O`
Response: 2.8

Query: Now give it for CCOC(=O)CC(=O)CCl [Ethyl 4-chloroacetoacetate] too.
Response: 21.7

Query: Would you mind doing CCOC(=O)C(C)=O [Ethyl pyruvate] as well?
Response: 176

Query: Here is the next molecule: `CCCC(C)=O`
Response: 2.8

Query: What do you get for `CCCCC(C)=O` ?
Response: 2.8
